# system-name: T1, rat MASP-2cf CCP1-CCP2-SP (rat, UniProt Q9JJS8 298-685)
# T1 construct: range 298-685; Mw 42309 Da; also called rat MASP-2 catalytic fragment
# T1 sequence (Q9JJS8 other isoform, or with tags, fused parts or gaps limits assumed, form in doubt): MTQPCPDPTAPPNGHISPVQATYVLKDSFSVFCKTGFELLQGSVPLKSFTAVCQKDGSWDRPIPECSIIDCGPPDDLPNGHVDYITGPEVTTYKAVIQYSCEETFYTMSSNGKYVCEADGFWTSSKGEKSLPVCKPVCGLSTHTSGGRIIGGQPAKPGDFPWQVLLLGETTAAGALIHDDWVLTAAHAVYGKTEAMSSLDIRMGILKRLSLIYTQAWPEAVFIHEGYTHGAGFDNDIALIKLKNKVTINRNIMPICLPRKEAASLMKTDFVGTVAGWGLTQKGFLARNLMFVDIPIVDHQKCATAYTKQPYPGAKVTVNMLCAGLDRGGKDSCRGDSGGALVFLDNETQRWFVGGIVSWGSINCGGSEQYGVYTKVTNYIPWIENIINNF
# assay-procedure: SPR, target immobilised
Where no end group is shown, it is not given here.
Each item that follows carries a reported pKd.
Scale explanation: pKd corresponds to minus log10 of a concentration expressed in moles per litre.

The cases that follow already have their pKd on record.
>  <binder>
EVO2d (designed binder, not fully specified; cysteine pairing not given here, Modified TFPI-D2 Kunitz domain; made as m1) KPDFCFLEEDPGPCRALKRRYFYNNQTKQCERFKYGGCLGNMNNFETLEECKNICEDG

>  <readout-name>
pKd

>  <readout-value>
8.97

$$$$
>  <binder>
EVO21 (designed binder, not fully specified; ends and bridges not checked, Modified TFPI-D2 Kunitz domain; made as m1) KPDFCFLENDPGPCRALKRRYFYNNQTKQCERFGYGGCLGNMNNFVTLEECKNICEDG

>  <readout-name>
pKd

>  <readout-value>
10.09

$$$$
>  <binder>
EVO222 (designed binder, not fully specified; cysteine pairing not given here, Modified TFPI-D2 Kunitz domain; made as m1) KPDFCFLENDPGLCRAAAVRYFYNNQTKQCERFYYGGCLGNMNNFVTLEECKNICEDG

>  <readout-name>
pKd

>  <readout-value>
9.25

$$$$

# input for lookup
GET /values?readout=pKd&item= EVO2c (designed binder, not fully specified; cysteine pairing not given here, Modified TFPI-D2 Kunitz domain; made as m1) KPDFCFLEEDPGPCRAVKRRYFYNNQTKQCERFYYGGCLGNMNNFETLEECKNICEDG 8.88
